Target Entity: GABA-A receptor; alpha-2/beta-3/gamma-2 (Homo sapiens, UniProt P18507+P28472+P47869)
Sequence (P18507 whole entry): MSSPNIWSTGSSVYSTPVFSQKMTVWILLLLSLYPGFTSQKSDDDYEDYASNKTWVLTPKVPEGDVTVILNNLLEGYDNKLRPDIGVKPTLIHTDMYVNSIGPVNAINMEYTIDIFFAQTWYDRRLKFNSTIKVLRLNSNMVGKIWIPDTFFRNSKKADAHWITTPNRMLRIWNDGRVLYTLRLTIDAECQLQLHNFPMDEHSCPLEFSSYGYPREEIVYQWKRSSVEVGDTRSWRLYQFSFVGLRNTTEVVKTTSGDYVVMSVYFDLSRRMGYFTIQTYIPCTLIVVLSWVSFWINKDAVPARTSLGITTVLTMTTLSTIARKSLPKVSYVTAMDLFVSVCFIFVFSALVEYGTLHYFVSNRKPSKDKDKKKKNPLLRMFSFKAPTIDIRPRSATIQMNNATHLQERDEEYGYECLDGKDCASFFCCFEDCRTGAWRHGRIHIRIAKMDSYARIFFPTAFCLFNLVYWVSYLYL
Sequence (P28472 whole entry): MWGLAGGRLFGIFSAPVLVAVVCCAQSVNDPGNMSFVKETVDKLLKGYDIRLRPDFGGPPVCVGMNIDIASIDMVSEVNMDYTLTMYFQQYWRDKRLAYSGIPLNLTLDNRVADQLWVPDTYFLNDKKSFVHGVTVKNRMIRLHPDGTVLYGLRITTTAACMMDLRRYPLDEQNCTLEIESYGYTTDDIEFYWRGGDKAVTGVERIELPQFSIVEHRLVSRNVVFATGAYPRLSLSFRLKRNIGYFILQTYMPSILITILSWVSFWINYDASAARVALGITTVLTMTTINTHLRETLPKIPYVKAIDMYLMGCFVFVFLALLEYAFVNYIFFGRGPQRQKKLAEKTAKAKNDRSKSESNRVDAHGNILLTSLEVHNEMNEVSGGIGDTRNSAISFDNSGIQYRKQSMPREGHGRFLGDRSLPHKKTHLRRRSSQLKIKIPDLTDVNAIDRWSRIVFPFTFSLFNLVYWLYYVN
Sequence (P47869 whole entry): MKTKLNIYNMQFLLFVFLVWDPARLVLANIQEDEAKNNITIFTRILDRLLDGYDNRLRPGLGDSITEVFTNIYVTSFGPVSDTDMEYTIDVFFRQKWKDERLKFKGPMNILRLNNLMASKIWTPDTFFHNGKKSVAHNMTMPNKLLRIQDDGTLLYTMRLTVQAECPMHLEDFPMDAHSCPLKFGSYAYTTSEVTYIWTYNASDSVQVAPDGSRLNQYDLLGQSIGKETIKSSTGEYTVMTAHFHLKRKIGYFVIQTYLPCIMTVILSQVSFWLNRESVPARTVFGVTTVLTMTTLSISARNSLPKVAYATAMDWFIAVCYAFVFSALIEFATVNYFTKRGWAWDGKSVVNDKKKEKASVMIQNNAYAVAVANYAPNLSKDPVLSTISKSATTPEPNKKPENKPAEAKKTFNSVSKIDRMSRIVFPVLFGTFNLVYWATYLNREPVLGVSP
Experiment Summary: Binding affinity for human GABA-A receptor alpha-2-beta-3-gamma-2 subunits in L(tk-) cells
pKi: −log10 of the molar value.
Is pKi at least 8? Then label 1. If not, label 0.

Decide: is the reported value of pKi for `C=Cc1nnc2c3ccccc3c(OCc3ccccn3)nn12` equal to or greater than 8?
label 0

Decide: is the reported value of pKi for `c1ccc(-c2nnc3c4c(c(OCc5ccccn5)nn23)CCCC4)cc1` equal to or greater than 8?
label 1

Decide: is the reported value of pKi for `COc1ccccc1COc1nn2c(-c3ccccc3)nnc2c2ccccc12` equal to or greater than 8?
label 0

Decide: is the reported value of pKi for `c1ccc(-c2nnc3c4ccccc4c(OCC4CCNCC4)nn23)cc1` equal to or greater than 8?
label 0

Decide: is the reported value of pKi for `Cc1ccc(COc2nn3c(-c4ccccc4)nnc3c3ccccc23)nc1` equal to or greater than 8?
label 1

Decide: is the reported value of pKi for `CCOC(=O)c1ncn2c1[C@@H]1CCCN1C(=O)c1cc(OC)ccc1-2` equal to or greater than 8?
label 0

Decide: is the reported value of pKi for `CN(C)Cc1nnc2c3ccccc3c(OCc3ccccn3)nn12` equal to or greater than 8?
label 0

Decide: is the reported value of pKi for `N#Cc1cccc(COc2nn3c(-c4ccccc4)nnc3c3ccccc23)c1` equal to or greater than 8?
label 0

Decide: is the reported value of pKi for `Cc1cccnc1COc1nn2c(-c3ccccc3)nnc2c2ccccc12` equal to or greater than 8?
label 1

Decide: is the reported value of pKi for `CCc1nnc2c3ccccc3c(OCc3ccccn3)nn12` equal to or greater than 8?
label 0

Decide: is the reported value of pKi for `COc1ccc(-c2nnc3c4ccccc4c(OCc4ccccc4)nn23)cc1` equal to or greater than 8?
label 0

Decide: is the reported value of pKi for `Cc1cccc2c(OCc3ccccn3)nn3c(-c4ccccc4)nnc3c12` equal to or greater than 8?
label 1

Decide: is the reported value of pKi for `O=C1c2ccccc2C(=O)N1CCn1c(=O)c2ccccc2c(=O)n1Cc1ccccc1` equal to or greater than 8?
label 0

Decide: is the reported value of pKi for `c1ccc(Oc2nn3c(-c4ccccc4)nnc3c3ccccc23)cc1` equal to or greater than 8?
label 0

Decide: is the reported value of pKi for `c1ccc(-c2nnc3c4ccccc4c(OCC4CCCCC4)nn23)cc1` equal to or greater than 8?
label 0

Decide: is the reported value of pKi for `Clc1ccc(COc2nn3c(-c4ccccc4)nnc3c3ccccc23)cc1` equal to or greater than 8?
label 0

Decide: is the reported value of pKi for `Cc1ccc2c(c1)c(OCc1ccccn1)nn1c(-c3ccccc3)nnc21` equal to or greater than 8?
label 1

Decide: is the reported value of pKi for `c1ccc(CNc2nn3c(-c4ccccc4)nnc3c3ccccc23)cc1` equal to or greater than 8?
label 0

Decide: is the reported value of pKi for `c1ccc(COc2nn3c(C4CCC4)nnc3c3ccccc23)nc1` equal to or greater than 8?
label 0

Decide: is the reported value of pKi for `CC(C)c1nnc2c3ccccc3c(OCc3ccccn3)nn12` equal to or greater than 8?
label 0

Decide: is the reported value of pKi for `Cc1ccc2c(OCc3ccccn3)nn3c(-c4ccccc4)nnc3c2c1` equal to or greater than 8?
label 0

Decide: is the reported value of pKi for `c1ccc(COc2nn3c(C4CC4)nnc3c3ccccc23)nc1` equal to or greater than 8?
label 1

Decide: is the reported value of pKi for `COc1cccc(COc2nn3c(-c4ccccc4)nnc3c3ccccc23)c1` equal to or greater than 8?
label 0

Decide: is the reported value of pKi for `CN(Cc1ccccc1)c1nn2c(-c3ccccc3)nnc2c2ccccc12` equal to or greater than 8?
label 0

Decide: is the reported value of pKi for `c1ccc(CCCOc2nn3c(-c4ccccc4)nnc3c3ccccc23)cc1` equal to or greater than 8?
label 0

Decide: is the reported value of pKi for `Cc1nnc2c3ccccc3c(OCc3ccccn3)nn12` equal to or greater than 8?
label 0

Decide: is the reported value of pKi for `c1ccc(CCOc2nn3c(-c4ccccc4)nnc3c3ccccc23)cc1` equal to or greater than 8?
label 0

Decide: is the reported value of pKi for `Cc1cccc2c1c(OCc1ccccn1)nn1c(-c3ccccc3)nnc21` equal to or greater than 8?
label 0

Decide: is the reported value of pKi for `c1ccc(-c2nnc3c4ccccc4c(OCc4ccncn4)nn23)cc1` equal to or greater than 8?
label 1

Decide: is the reported value of pKi for `Cn1ccnc1COc1nn2c(-c3ccccc3)nnc2c2ccccc12` equal to or greater than 8?
label 1

Decide: is the reported value of pKi for `c1ccc(-c2nnc3c4ccccc4c(OCc4ccsc4)nn23)cc1` equal to or greater than 8?
label 0

Decide: is the reported value of pKi for `COc1ccc(COc2nn3c(-c4ccccc4)nnc3c3ccccc23)cc1` equal to or greater than 8?
label 0

Every entry's value here was drawn from ChEMBL document CHEMBL1149126.
